Molecular target: Melanin-concentrating hormone receptor 1 (Homo sapiens)
Sequence (Q99705 whole entry): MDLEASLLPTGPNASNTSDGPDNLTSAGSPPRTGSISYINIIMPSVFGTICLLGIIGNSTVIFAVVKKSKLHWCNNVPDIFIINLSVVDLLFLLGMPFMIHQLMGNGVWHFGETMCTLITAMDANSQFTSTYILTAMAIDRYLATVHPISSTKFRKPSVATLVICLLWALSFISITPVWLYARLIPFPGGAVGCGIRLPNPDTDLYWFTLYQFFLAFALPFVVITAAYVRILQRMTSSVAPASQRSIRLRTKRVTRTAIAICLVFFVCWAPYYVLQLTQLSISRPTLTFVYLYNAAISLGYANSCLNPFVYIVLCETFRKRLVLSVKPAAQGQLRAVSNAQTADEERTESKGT
Test: Displacement of [125I]MCH from human MCHR1 expressed in CHO cell membranes at 5 ug/ml
The entries below are paired with their reported inhibition.
Express it in %; write the number only.

Below are worked cases with known answers.
{"columns": ["smiles_entry", "inhibition / %"],
 "data": [
  ["O=C(Nc1ccccc1)c1c(-c2ccccc2)n(Cc2ccccc2)c2nc3ccccc3n12", 15],
  ["CCOc1ccccc1Nc1nc(N)nc(CN(C)C2CCCCC2)n1", 16],
  ["Cc1ccc(S(=O)(=O)CN(CS(=O)(=O)c2ccc(C)cc2)c2ccc(Br)cc2F)cc1", 10],
  ["CCCn1c(-c2ccc(-c3ccccc3)cc2)c(C(C)=O)n2c3ccccc3nc12", 18]
]}

Exercise: Reported inhibition, molecule O=C(c1cc2sccc2n1Cc1ccc(F)cc1)N(CCCN1CCOCC1)Cc1cccnc1 : ____
Key: 44

Exercise: Returns the measured inhibition for the input molecule. Input: CCC(=O)Oc1ccc(NC2=NS(=O)(=O)c3ccccc32)cc1
Key: 31

Exercise: Value lookup for inhibition; key = COc1cc(C(=O)Oc2ccc(N(Cc3cccs3)C3=NS(=O)(=O)c4ccccc43)cc2)cc(OC)c1OC
Key: 10

Exercise: // inhibition lookup, key: CCOc1ccc(NC2=NS(=O)(=O)c3cc([N+](=O)[O-])ccc32)cc1
Key: 4
